assay: Metabolic stability in human liver microsomes after 1 hr; assay type: ADME, Microsome; conditions: read-out: Stability
Measured remaining at 1 h accompanies every entry in the list below.

- Smi: "COc1cc(NC(=O)c2ccccn2)ccc1Cl"
  Unit of measure: "%"
  remaining at 1 h: 5.3
- Smi: "O=C(Nc1cccc(OC(F)F)c1)c1ccccn1"
  Unit of measure: "%"
  remaining at 1 h: 2.4
- Smi: "O=C(Nc1cccc(C(F)(F)F)c1)c1ccccn1"
  Unit of measure: "%"
  remaining at 1 h: 26
- Smi: "O=C(Nc1cccc(OC(F)(F)F)c1)c1ccccn1"
  Unit of measure: "%"
  remaining at 1 h: 22
- Smi: "COc1cc(NC(=O)c2ccccn2)ccc1F"
  Unit of measure: "%"
  remaining at 1 h: 3
